target entity: FIPV-3CL^pro (Feline coronavirus (strain FIPV WSU-79/1146) (FCoV))
Sequence (Q98VG9 2904-3205 limits assumed): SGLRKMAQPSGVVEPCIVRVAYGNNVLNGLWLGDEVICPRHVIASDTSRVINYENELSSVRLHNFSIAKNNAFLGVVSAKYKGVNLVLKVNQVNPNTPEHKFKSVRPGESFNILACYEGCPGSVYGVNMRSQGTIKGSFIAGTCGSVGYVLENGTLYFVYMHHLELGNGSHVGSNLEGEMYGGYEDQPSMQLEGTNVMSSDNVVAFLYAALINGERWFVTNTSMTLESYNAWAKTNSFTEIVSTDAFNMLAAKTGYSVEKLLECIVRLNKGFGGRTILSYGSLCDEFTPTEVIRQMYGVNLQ
test details: biochemical
measured quantity: IC50
Give me the value, and tack the unit on after it.

// known answers, use as guide
CC(C)(C)c1ccc(N(C(=O)c2c[nH]cn2)C(C(=O)NCc2ccccc2)c2cccnc2)cc1 (stereo not shown) [Compound 48] :: 19 µM
CC(C)Cc1ccc(N(C(=O)c2c[nH]cn2)C(C(=O)NC(C)(C)C)c2cccnc2)cc1 (stereo not shown) [Compound 38] :: 61.1 µM
CC(C)C(=O)Nc1ccc(N(C(=O)Cn2nnc3ccccc32)C(C(=O)NCc2cccnc2)c2cccc(F)c2)cc1 (stereo not shown) [Compound 6] :: 13.8 µM
CC(C)CNC(=O)C(c1cccnc1)N(C(=O)c1c[nH]cn1)c1ccc(C(C)(C)C)cc1 (stereo not shown) [Compound 43] :: 16.2 µM
CC(C)(C)NC(=O)C(c1cccnc1)N(C(=O)c1c[nH]cn1)c1ccc(C2CCCCC2)cc1 (stereo not shown) [Compound 42] :: 39.7 µM

Hello, I would appreciate it if you could give IC50 for each entry below.
1. CC(C)(C)c1ccc(N(C(=O)c2c[nH]cn2)C(C(=O)NC2CC2)c2cccnc2)cc1 (stereo not shown) [Compound 46]
2. CC(C)(C)OC(=O)CNC(=O)C(c1ccsc1)N(C(=O)Cn1nnc2ccccc21)c1ccc(NC(=O)C2CC2)cc1 (stereo not shown) [Compound 64]
3. CC(C)C(=O)Nc1ccc(N(C(=O)Cn2nnc3ccccc32)C(C(=O)NCc2ccccc2)c2cccc(F)c2)cc1 (stereo not shown) [Compound 1P, reference compound]
4. O=C(Nc1ccc(N(C(=O)Cn2nnc3ccccc32)C(C(=O)NCc2cccnc2)c2ccsc2)cc1)C1CC1 (stereo not shown) [Compound 34]
5. CC(C)(C)NC(=O)C(c1cccnc1)N(C(=O)c1c[nH]cn1)c1ccc(C2CCC2)cc1 (stereo not shown) [Compound 40]

["43.9 µM", "11.7 µM", "6.7 µM", "27.5 µM", "27 µM"]
